Target under test: IL-23R (Homo sapiens)
Sequence (Q5VWK5 24-629): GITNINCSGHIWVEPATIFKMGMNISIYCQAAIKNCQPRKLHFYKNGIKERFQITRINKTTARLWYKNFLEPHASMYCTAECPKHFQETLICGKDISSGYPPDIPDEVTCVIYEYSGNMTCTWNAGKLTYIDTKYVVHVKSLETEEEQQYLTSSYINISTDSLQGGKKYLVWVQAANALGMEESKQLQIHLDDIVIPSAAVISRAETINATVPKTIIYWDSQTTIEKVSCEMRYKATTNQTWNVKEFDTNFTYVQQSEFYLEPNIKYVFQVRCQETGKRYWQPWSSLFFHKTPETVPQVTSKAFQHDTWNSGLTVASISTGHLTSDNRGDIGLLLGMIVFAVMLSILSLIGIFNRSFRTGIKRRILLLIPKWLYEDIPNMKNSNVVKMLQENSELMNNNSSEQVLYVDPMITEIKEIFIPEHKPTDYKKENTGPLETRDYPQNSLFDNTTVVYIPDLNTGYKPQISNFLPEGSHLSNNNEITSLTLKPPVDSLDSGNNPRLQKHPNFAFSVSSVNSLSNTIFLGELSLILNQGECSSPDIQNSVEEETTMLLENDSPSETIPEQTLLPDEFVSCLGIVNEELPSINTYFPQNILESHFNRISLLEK
Protocol details: DB cells IL23R pSTAT3 cell assay (pStat3 HTRF)
Assay type: cell-based
Assay setup: Table E3; DB cells, IL-23 0.5 nM, 30 minutes at 37° C.; read-out: pStat3 HTRF (IC50)
Bridge positions count the residues as written; N and C are the ends. Square brackets hold non-standard residues; d marks the D form. Peptide text beside a SMILES is read from it. Trp(7-Me) = Cc1cccc2c(C[C@H](N)C(=O)O)c[nH]c12; Trp(2-Me) = Cc1[nH]c2ccccc2c1C[C@H](N)C(=O)O; 2Nal = N[C@@H](Cc1ccc2ccccc2c1)C(=O)O; AEF = NCCOc1ccc(C[C@H](N)C(=O)O)cc1; Cit = NC(=O)NCCC[C@H](N)C(=O)O; Pen = CC(C)(S)[C@H](N)C(=O)O; αMeK = C[C@](N)(CCCCN)C(=O)O; Aib = CC(C)(N)C(=O)O; βAla = NCCC(=O)O
Give measured IC50 for each item. Keep answers brief.

Check out these entries, answers already filled in.
Compound	IC50
CC(=O)NCCCC[C@H](NC(=O)[C@](C)(CCCCN)NC(=O)[C@H](Cc1ccc2ccccc2c1)NC(=O)[C@H](Cc1ccc(OCCN)cc1)NC(=O)[C@H]1NC(=O)C(C)(C)NC(=O)[C@H](Cc2c[nH]c3c(C)cccc23)NC(=O)[C@H]([C@@H](C)O)NC(=O)[C@H](CC(N)=O)NC(=O)[C@@H](NC(C)=O)C(C)(C)SSC1(C)C)C(=O)N[C@@H](CC(N)=O)C(=O)NCCC(N)=O [compound 241] (Ac-[Pen]NT[Trp(7-Me)][Aib][Pen][AEF][2Nal][αMeK]K(Ac)N[βAla]-NH2; disulfide 1-6)	10 to 100 nM
CC(=O)NCCCC[C@@H]1NC(=O)[C@@H](NC(C)=O)C(C)(C)SSC(C)(C)[C@@H](C(=O)N[C@@H](Cc2ccc(OCCN)cc2)C(=O)N[C@@H](Cc2ccc3ccccc3c2)C(=O)N[C@@](C)(CCCCN)C(=O)N[C@@H](CCCCNC(C)=O)C(=O)N[C@@H](CC(N)=O)C(=O)NCCC(N)=O)NC(=O)[C@H](CCC(N)=O)NC(=O)[C@H](Cc2c[nH]c3c(C)cccc23)NC(=O)[C@H]([C@@H](C)O)NC1=O	1 to 10 nM
CC(=O)NCCCC[C@H](NC(=O)[C@](C)(CC(C)C)NC(=O)[C@H](Cc1ccc2ccccc2c1)NC(=O)[C@H](Cc1ccc(OCCN)cc1)NC(=O)[C@H]1NC(=O)[C@H](CCC(N)=O)NC(=O)[C@H](Cc2c[nH]c3c(C)cccc23)NC(=O)[C@H]([C@@H](C)O)NC(=O)[C@H](CC(N)=O)NC(=O)[C@@H](NC(C)=O)C(C)(C)SSC1(C)C)C(=O)N[C@H](CO)C(=O)NCCC(N)=O	1 to 10 nM

Please report IC50 for every entry that follows.
1. CC(=O)NCCCC[C@H](NC(=O)[C@](C)(CCCCN)NC(=O)[C@H](Cc1ccc2ccccc2c1)NC(=O)[C@H](Cc1ccc(OCCN)cc1)NC(=O)[C@H]1NC(=O)[C@H](CCCNC(N)=O)NC(=O)[C@H](Cc2c[nH]c3c(C)cccc23)NC(=O)[C@H]([C@@H](C)O)NC(=O)[C@H](CC(N)=O)NC(=O)[C@@H](NC(C)=O)C(C)(C)SSC1(C)C)C(=O)N[C@@H](CC(N)=O)C(=O)N[C@H](CO)C(N)=O [compound 261] (Ac-[Pen]NT[Trp(7-Me)][Cit][Pen][AEF][2Nal][αMeK]K(Ac)N[dS]-NH2; disulfide 1-6)
2. CC(=O)NCCCC[C@@H]1NC(=O)[C@H](Cc2c[nH]c3c(C)cccc23)NC(=O)[C@H]([C@@H](C)O)NC(=O)[C@H](CC(N)=O)NC(=O)[C@@H](NC(C)=O)C(C)(C)SSC(C)(C)[C@@H](C(=O)N[C@@H](Cc2ccc(OCCN)cc2)C(=O)N[C@@H](Cc2ccc3ccccc3c2)C(=O)N[C@@](C)(CCCCN)C(=O)N[C@@H](CCCCNC(C)=O)C(=O)N[C@@H](CC(N)=O)C(=O)N[C@H](CCCCN)C(N)=O)NC1=O
3. CC(=O)NCCCC[C@@H]1NC(=O)[C@H](Cc2c[nH]c3c(C)cccc23)NC(=O)[C@H]([C@@H](C)O)NC(=O)[C@H](CC(N)=O)NC(=O)[C@@H](NC(C)=O)C(C)(C)SSC(C)(C)[C@@H](C(=O)N[C@@H](Cc2ccc(OCCN)cc2)C(=O)N[C@@H](Cc2c(C)[nH]c3ccccc23)C(=O)N[C@@](C)(CCCCN)C(=O)N[C@@H](CCCCNC(C)=O)C(=O)N[C@@H](CC(N)=O)C(=O)N[C@H](CCCCN)C(N)=O)NC1=O [compound 353] (Ac-[Pen]NT[Trp(7-Me)]K(Ac)[Pen][AEF][Trp(2-Me)][αMeK]K(Ac)N[dK]-NH2; disulfide 1-6)
4. COc1cccc2c(C[C@@H]3NC(=O)[C@H]([C@@H](C)O)NC(=O)[C@H](CC(N)=O)NC(=O)[C@@H](NC(C)=O)C(C)(C)SSC(C)(C)[C@@H](C(=O)N[C@@H](Cc4ccc(OCCN)cc4)C(=O)N[C@@H](Cc4ccc5ccccc5c4)C(=O)N[C@@](C)(CCCCN)C(=O)N[C@@H](CCCCNC(C)=O)C(=O)N[C@@H](CC(N)=O)C(=O)N[C@H](CCCCN)C(N)=O)NC(=O)[C@H](CCC(N)=O)NC3=O)c[nH]c12

## Result
["< 1 nM", "< 1 nM", "< 1 nM", "1 to 10 nM"]

Please report IC50 for every entry that follows.
1. CC(=O)NCCCC[C@H](NC(=O)[C@](C)(CCCCN)NC(=O)[C@H](Cc1ccc2ccccc2c1)NC(=O)[C@H](Cc1ccc(OCCN)cc1)NC(=O)[C@H]1NC(=O)[C@H](CCCNC(N)=O)NC(=O)[C@H](Cc2c[nH]c3c(C)cccc23)NC(=O)[C@H]([C@@H](C)O)NC(=O)[C@H](CC(N)=O)NC(=O)[C@@H](NC(C)=O)C(C)(C)SSC1(C)C)C(=O)N[C@@H](CC(N)=O)C(=O)NC(C)(C)C(=O)NCCC(N)=O [compound 340] (Ac-[Pen]NT[Trp(7-Me)][Cit][Pen][AEF][2Nal][αMeK]K(Ac)N[Aib][βAla]-NH2; disulfide 1-6)
2. CC(=O)N[C@H](CCCNC(=N)N)C(=O)N[C@H]1CCSC[C@@H](C(=O)N[C@@H](Cc2ccc(OCCN)cc2)C(=O)N[C@@H](Cc2ccc3ccccc3c2)C(=O)NC2(C(=O)N[C@@H](CCC(=O)O)C(=O)N[C@@H](CC(N)=O)C(=O)NCCC(N)=O)CCOCC2)NC(=O)[C@H](CCC(N)=O)NC(=O)[C@H](Cc2c[nH]c3c(C)cccc23)NC(=O)[C@H]([C@@H](C)O)NC(=O)[C@H](CCC(N)=O)NC1=O

## Result
1: < 1 nM; 2: 1 to 10 nM
